Tested on: SK-MEL-5 melanoma
Assay name: NCI tumour cell line growth inhibition, 48 h
Please provide measured log10 TGI for the entries that follow.
Quick note: numbers are log10 of TGI, with µM as the unit.

The reported value for CC(C)=CC(=O)OC1C2C(C)C(=O)OC2C(O)C(C)C2C=CC(=O)C21C (stereo unspecified) in terms of log10 TGI is 0.96

Memo: CCOc1ccc2c(ccc(/C=C\c3cc(C)c4cccnc4c3O)[n+]2C)c1 , reported log10 TGI: 0.54

Entry under test: C=C1C(=O)O[C@@H]2C[C@@H]1CC[C@@]1(C)O[C@@H]1CC[C@@]1(C)O[C@@H]1CC[C@@]2(C)O . Its log10 TGI was 1.50

Reported log10 TGI of COc1cc(C2CC(c3cc(C)ccc3C)=NN2c2ccc(S(=O)(=O)NC(=O)NCc3ccccc3)cc2)cc(OC)c1OC (stereo unspecified) : 0.64

Data point: CCN(CC)C(=S)SC1CCOP(=O)(N(CCCl)CCCl)N1C (stereo unspecified) ; log10 TGI = 1.49

Record summary for Cc1cccc2c(N)c3cccc(C(=O)NCCN(C)C)c3nc12 : reported log10 TGI = -0.57
